Origin of the recorded values: paper PMC12316891

tested system: BRD4 (BD1) (Homo sapiens)
Construct: A pET28 plasmid containing residues 44–168 of BRD4 (BD1), a 6xHis tag, a TEV protease cleavage site; 6xHis (N, cleaved yes); made in house; host or cells: E. coli Rosetta (D3)
test description: Differential scanning fluorimetry (DSF) single-dose thermal shift screening
Type: binding
recorded conditions: DSF, compound 10 µM, BRD4 (BD1) 2 µM, n = 3, decimal comma; read-out: ΔTm ºC at [10 µM]
value type: ΔTm at 10 µM (°C)
Write the value in °C as a bare number.

Example entries begin here.
{"columns": ["molecule", "result units", "value measured"],
 "data": [
  ["COc1cccc(-n2nc(-c3cscn3)nc2-c2cn(C)c(=O)c3ccccc23)c1", "°C", 2.28],
  ["Cc1cn2cc(C(=O)NC(C)CC(C)NC(=O)c3ccsn3)sc2n1 (stereo not drawn)", "°C", 0.44]
]}

Kindly consider the entry below.
Output measured ΔTm at 10 µM for this item: Cc1nnc(NC(=O)NCc2cccc(C(=O)NCC3CCCO3)c2)s1 (stereo not drawn)
1.13

====

tested system: His6-BRD4 (BD1) (Homo sapiens, UniProt O60885)
Construct: A pET28 plasmid containing residues 44–168 of BRD4 (BD1), a 6xHis tag, a TEV protease cleavage site; made in house; host or cells: E. coli Rosetta (D3)
test description: Surface plasmon resonance (SPR) single-dose screening
Assay type: binding
recorded conditions: SPR, compound 10 µM, 1% DMSO, n = 2, decimal comma
value type: RUs at [10 µM]

Example entries begin here.
{"columns": ["compound", "value type", "value measured"],
 "data": [
  ["COc1cc2c(cc1-c1c(C)noc1C)ncc1[nH]c(=O)n([C@H](C)c3ccccn3)c12 [Compound 2, reference compound]", "RUs at [10 µM]", "95,35 ± 25,76 RUs"],
  ["CCn1nnc2cc(C(=O)N3CCC(CCNC(=O)c4nc(O)sc4C)C3)ccc21 (stereo not shown)", "RUs at [10 µM]", "8,73 ± 4,6 RUs"],
  ["CCn1nnc2cc(C(=O)N3CCC(c4nnc(CNC(=O)c5ccncn5)s4)CC3)ccc21", "RUs at [10 µM]", "10,07 ± 8,75 RUs"],
  ["Cc1cc(C)n2nc(NC(=O)NCCOC3(C)CCOCC3)nc2n1", "RUs at [10 µM]", "11,01 ± 0,31 RUs"],
  ["COc1ccc(-n2c(C)nnc2SCC(=O)NCc2cc(C)nc(C)c2)cc1", "RUs at [10 µM]", "17,34 ± 14,82 RUs"]
]}

Output measured RUs at [10 µM] for this item: COc1ccc(-n2c(C)nnc2SCC(=O)NCC2(N)CCOCC2)cc1
16,66 ± 3,56 RUs

Output measured RUs at [10 µM] for this item: Cc1cc(C)n2c(CNc3ccc(C)c(NC(=O)CN4CCCCC4)c3)cnc2n1
28,42 ± 2,09 RUs

Output measured RUs at [10 µM] for this item: Cc1nnc(NC(=O)NCc2cccc(C(=O)NCC3CCCO3)c2)s1 (stereo not shown)
23,59 ± 6,69 RUs

Output measured RUs at [10 µM] for this item: COc1cccc(-n2c(C)nnc2SCC(=O)Nc2ccc(C(F)F)cc2)c1
32,1 ± 9,99 RUs

Output measured RUs at [10 µM] for this item: Cc1nn(C)cc1C(=O)NC1CCC2(CC1)CCN(C(=O)c1sc3nnc(C)c(C)c3c1N)CC2
40,95 ± 7,16 RUs

Output measured RUs at [10 µM] for this item: COc1ccc(-n2c(C)nnc2SCC(=O)N(c2ccccc2)C2CC2)cc1
4,63 ± 0,03 RUs

====

tested system: BRD4 (BD1) (Homo sapiens, UniProt O60885)
Construct: A pET28 plasmid containing residues 44–168 of BRD4 (BD1), a 6xHis tag, a TEV protease cleavage site; 6xHis (N, cleaved yes); made in house; host or cells: E. coli Rosetta (D3)
test description: Competitive HTRF TR-FRET binding assay (displacement of acetylated histone H4 peptide)
recorded conditions: 16-point titration 0.1 nM to 10 µM, n = 2; Negative = curve could not be fitted to a sigmoidal curve; read-out: TR-FRET IC50
Items are presented alongside their recorded log10 of IC50.
A difference of one corresponds to tenfold IC50; all values are log10 with IC50 in nM.

{"columns": ["molecule", "log10 of IC50"],
 "data": [
  ["COc1ccc(-n2c(C)nnc2SCC(=O)NCc2cc(C)nc(C)c2)cc1", 0.77],
  ["CCCc1c(C(=O)NCc2cccc3c2OCCO3)[nH]c(C)c1C(C)=O", 3.04],
  ["CCCc1c(C(=O)N2CCC(F)(F)C(CNC(=O)c3nc(C)c(C)s3)C2)[nH]c(C)c1C(C)=O (centres unmarked)", 2.17]
]}

Output measured log10 of IC50 for this item: Cc1cc(C)n2nc(NC(=O)NCCOC3(C)CCOCC3)nc2n1
1.85

Output measured log10 of IC50 for this item: Cc1cc(C)n2c(CNc3ccc(C)c(NC(=O)CN4CCCCC4)c3)cnc2n1
0.57

Output measured log10 of IC50 for this item: CNC(=O)C1(C(=O)N[C@@H]2CCCC[C@H]2NC(=O)c2cnsn2)CCC1
1.46

Output measured log10 of IC50 for this item: Cc1cn2cc(C(=O)NC(C)CC(C)NC(=O)c3ccsn3)sc2n1 (centres unmarked)
2.76

Output measured log10 of IC50 for this item: CC(NS(=O)(=O)c1cccc(-c2nnnn2C)c1)C1CCN(Cc2ccccc2)C1 (centres unmarked)
2.38

====

tested system: BRD4 (BD1) (Homo sapiens, UniProt O60885)
Construct: A pET28 plasmid containing residues 44–168 of BRD4 (BD1), a 6xHis tag, a TEV protease cleavage site; 6xHis (N, cleaved yes); made in house; host or cells: E. coli Rosetta (D3)
test description: Differential scanning fluorimetry (DSF) single-dose thermal shift screening
Type: binding
recorded conditions: DSF, compound 10 µM, BRD4 (BD1) 2 µM, n = 3, decimal comma; read-out: ΔTm ºC at [10 µM]
Items are presented alongside their recorded ΔTm at 10 µM.
Write the value in °C as a bare number.

Example entries begin here.
{"columns": ["compound", "result units", "ΔTm at 10 µM"],
 "data": [
  ["CCn1nnc2cc(C(=O)N3CCC(CCNC(=O)c4nc(O)sc4C)C3)ccc21 (stereo not shown) [Compound 31]", "°C", 0.02],
  ["Cc1nc(=O)c(CCC(=O)NC2CC(O)(Cn3cc(-c4cnn(C)c4C)nn3)C2)c[nH]1 (stereo not shown) [Compound 81]", "°C", -0.15],
  ["COc1cccc(-n2c(C)nnc2SCC(=O)NC2CN(C(=O)C3CCOCC3)CC23CC3)c1 (stereo not shown) [Compound 32]", "°C", 0.87]
]}

Kindly consider the entry below.
Output measured ΔTm at 10 µM for this item: Cc1ncc(C(=O)NCCn2cc(Cn3c(C)nc4ccccc43)nn2)c(=O)[nH]1 [Compound 83]
0.78

====

Items are presented alongside their recorded log10 of IC50.
tested system: BRD4 (BD1) (Homo sapiens, UniProt O60885)
Construct: A pET28 plasmid containing residues 44–168 of BRD4 (BD1), a 6xHis tag, a TEV protease cleavage site; 6xHis (N, cleaved yes); made in house; host or cells: E. coli Rosetta (D3)
test description: Competitive HTRF TR-FRET binding assay (displacement of acetylated histone H4 peptide)
recorded conditions: 16-point titration 0.1 nM to 10 µM, n = 2; Negative = curve could not be fitted to a sigmoidal curve; read-out: TR-FRET IC50
A difference of one corresponds to tenfold IC50; all values are log10 with IC50 in nM.

Example entries begin here.
{"columns": ["molecule", "log10 of IC50"],
 "data": [
  ["Cc1nnc(NC(=O)CCC(=O)N2Cc3ccccc3OC3(CCOC3)C2)s1 (centres unmarked) [Compound 76]", 2.61],
  ["Cc1nnc(NC(=O)CNC(c2ccc(F)cc2)c2cnn(C)c2)s1 (centres unmarked) [Compound 88]", 3.35],
  ["CCOc1ccc(-c2cn(C3CC(NC(=O)c4cc(C)nc5ncnn45)C3)nn2)cc1F (centres unmarked) [Compound 82]", 1.47],
  ["Cc1nc(=O)c(CCC(=O)NC2CC(O)(Cn3cc(-c4cnn(C)c4C)nn3)C2)c[nH]1 (centres unmarked) [Compound 81]", 1.42],
  ["Cc1nn(C)cc1C(=O)NC1CCC2(CC1)CCN(C(=O)c1sc3nnc(C)c(C)c3c1N)CC2 [Compound 24]", 3.25],
  ["Cc1cc(C)n2nc(CNC(=NCCCN3CCOCC3)N3CCC(NC(=O)CBr)C3)nc2n1 (centres unmarked) [Compound 93]", 2.67],
  ["Cc1cc(C)n2nc(NC(=O)N3CCC(CCC(C)(C)C)C3)nc2n1 (centres unmarked) [Compound 74]", 3.14],
  ["CCCc1c(C(=O)N(C)C2CN(C(=O)c3cc(C)n[nH]3)C2)[nH]c(C)c1C(C)=O [Compound 96]", 2.32]
]}

Output measured log10 of IC50 for this item: COC(C)CC(=O)N1CCC(C2(O)CCN(C(=O)c3sc4nnc(C)c(C)c4c3N)C2)CC1 (centres unmarked) [Compound 39]
1.90

Output measured log10 of IC50 for this item: COc1cccnc1C(=O)N1CCC2(CC(NC(=O)c3occc3Br)c3ccccc3O2)C1 (centres unmarked) [Compound 66]
2.13

Output measured log10 of IC50 for this item: CN(C)S(=O)(=O)c1ccc(-n2nc(-c3cccnc3)nc2-c2cn(C)c(=O)c3ccccc23)cc1 [Compound 51]
1.59

Output measured log10 of IC50 for this item: Cn1cc(C(=O)Nc2ccc(OCc3cnccn3)cc2)c2ccccc2c1=O [Compound 42]
2.23

Output measured log10 of IC50 for this item: CCCc1c(C(=O)N2CCOC(Cn3cc(-c4ccsc4)nn3)C2)[nH]c(C)c1C(C)=O (centres unmarked) [Compound 22]
1.66

Output measured log10 of IC50 for this item: CC(C)=CC(=O)NCCC1CCN(C(=O)c2cn(C)c(=O)c3ccccc23)C1 (centres unmarked) [Compound 23]
0.54

Output measured log10 of IC50 for this item: COc1ccc(NS(=O)(=O)c2cc(C(=O)Nc3ccc4nnc(C(C)C)n4c3)ccc2F)cc1 [Compound 14]
2.82

Output measured log10 of IC50 for this item: COc1ccc(C2(NCC(=O)Nc3cc(-n4nnnc4C)ccc3F)CCOCC2)cc1 [Compound 18]
3.06

Output measured log10 of IC50 for this item: CCCc1c(C(=O)N2CCCC2Cn2cc(-c3cc(C)nc(C)c3)nn2)[nH]c(C)c1C(C)=O (centres unmarked) [Compound 61]
1.90

Output measured log10 of IC50 for this item: CCn1nnc2cc(C(=O)N3CCC(c4nnc(CNC(=O)c5ccncn5)s4)CC3)ccc21 [Compound 56]
2.86

Output measured log10 of IC50 for this item: COc1cccc(-n2c(C)nnc2SCC(=O)NC2CN(C(=O)C3CCOCC3)CC23CC3)c1 (centres unmarked) [Compound 32]
2.59

Output measured log10 of IC50 for this item: COC(=O)c1cc(CNC(=O)C=Cc2cnc(C)[nH]c2=O)ccc1Cl [Compound 87]
1.05

Output measured log10 of IC50 for this item: Cc1cc(C(=O)NCCc2nc3cc(Cl)ccc3[nH]2)n2ncnc2n1 [Compound 78]
2.23

Output measured log10 of IC50 for this item: COc1ccc(-n2c(C)nnc2SCC(=O)Nc2cn(C)nc2C(N)=O)cc1 [Compound 17]
2.28

Output measured log10 of IC50 for this item: Cc1ccc(-n2c(C)nnc2SCC(=O)N2CCOCCC23COC3)cc1 [Compound 94]
1.45

Output measured log10 of IC50 for this item: COc1ccc(C=C(CC(=O)Nc2nnc(C)s2)c2nc3ccccc3s2)cc1OC [Compound 70]
2.09

Output measured log10 of IC50 for this item: CNC(=O)c1ccc(-n2nc(Cn3cccn3)nc2-c2cn(C)c(=O)c3ccccc23)cc1 [Compound 50]
3.05

Output measured log10 of IC50 for this item: O=C(Nc1cccc(C(=O)N2CCC(Cn3cc(C4(O)CCOCC4)nn3)CC2)c1)c1ccco1 [Compound 84]
1.26
